Assignment: determine reported inhibition at 50 µM for the given molecules.
Target: LSD-1 (Homo sapiens, UniProt O60341)
Assay: LSD-1 A-screen (AlphaScreen) demethylase enzymatic assay
Type: biochemical
Conditions: 50 μM compound; approximate values; read-out: Potency LSD-1 % Inhibition at 50 μM
Number only, in %; omit the unit.

The molecule CCn1cc(C(=O)O)c(=O)c2c(N)c(F)c(N[C@H]3C[C@@H](c4ccccc4)C3)cc21 [Compound I-61] showed inhibition at 50 µM equal to 26

The molecule CCn1cc(C(=O)O)c(=O)c2c(N)c(F)c(N[C@H]3C[C@@H]3c3ccccc3)cc21 [Compound I-22] showed inhibition at 50 µM equal to 11

The molecule CCn1cc(C(=O)O)c(=O)c2c(N)c(F)c(NC3CCc4ccccc43)cc21 (stereo not shown) [Compound I-10] showed inhibition at 50 µM equal to 22

The molecule CCn1cc(C(=O)O)c(=O)c2c(N)cc(NC3CCCCC3)cc21 [Compound I-58] showed inhibition at 50 µM equal to 77

The molecule CCn1cc(C(=O)O)c(=O)c2c(N)c(F)c(N[C@@H]3C[C@H]3c3ccccc3)cc21 [Compound I-21] showed inhibition at 50 µM equal to 19

The molecule CCn1cc(C(=O)O)c(=O)c2c(N)cc(NCCCc3ccccc3)cc21 [Compound I-57] showed inhibition at 50 µM equal to 83

The molecule CCn1cc(C(=O)O)c(=O)c2c(N)c(F)c(Nc3ccccc3)cc21 [Compound I-16] showed inhibition at 50 µM equal to 32

The molecule CCn1cc(C(=O)O)c(=O)c2c(N)c(F)c(NCCCc3ccccc3)cc21 [Compound I-19] showed inhibition at 50 µM equal to 27

The molecule CCn1cc(C(=O)O)c(=O)c2c(N)cc(N[C@@H]3C[C@H]3c3ccccc3)cc21 (relative stereo) [Compound I-59] showed inhibition at 50 µM equal to 11

The molecule CCn1cc(C#N)c(=O)c2c(N)c(F)c(NCCc3ccccc3)cc21 [Compound I-67] showed inhibition at 50 µM equal to 8

The molecule CCn1cc(C(=O)O)c(=O)c2c(N)c(F)c(N[C@H]3C[C@H](c4ccccc4)C3)cc21 [Compound I-60] showed inhibition at 50 µM equal to 15

The molecule CCn1cc(C(=O)O)c(=O)c2cc(F)c(NC3CCCCC3)cc21 [Compound I-1] showed inhibition at 50 µM equal to 10

The molecule CCC(CC)n1cc(C(=O)O)c(=O)c2c(C)c(F)c(NC3CCCCC3)cc21 [Compound I-3] showed inhibition at 50 µM equal to 13

The molecule CCn1cc(C(=O)O)c(=O)c2c(N)c(F)c(OCCc3ccccc3)cc21 [Compound I-52] showed inhibition at 50 µM equal to 0

The molecule CCn1cc(C(=O)O)c(=O)c2c(N)cc(NCCc3ccccc3)c(F)c21 [Compound I-65] showed inhibition at 50 µM equal to 88

The molecule CCn1cc(C(=O)O)c(=O)c2c(N)c(F)c(NC3CN(c4ccccc4)C3)cc21 [Compound I-69] showed inhibition at 50 µM equal to 17

The molecule CCn1cc(C(=O)O)c(=O)c2c(N)cc(NCCc3ccccc3)cc21 [Compound I-56] showed inhibition at 50 µM equal to 56

The molecule CCn1cc(C(N)=O)c(=O)c2c(N)c(F)c(NCCc3ccccc3)cc21 [Compound I-66] showed inhibition at 50 µM equal to 6

The molecule CCn1cc(C(=O)O)c(=O)c2c(N)c(F)c(NC3CCCCC3)cc21 [Compound I-7] showed inhibition at 50 µM equal to 10

* * *

Assignment: determine reported pIC50 for the given molecules.
pIC50 here is simply -log10 of the concentration when that concentration is written in mol/L.

Form: item CCn1cc(C(=O)O)c(=O)c2c(N)c(F)c(N3CCC(N[C@@H]4C[C@H]4c4ccccc4)CC3)cc21 (relative stereo) ; test system LSD-1 (Homo sapiens, UniProt O60341); pIC50: 5.82

Form: item CCn1cc(C(=O)O)c(=O)c2c(N)c(F)c(N[C@H]3CC[C@@H](N[C@@H]4C[C@H]4c4ccccc4)CC3)cc21 (relative stereo) ; test system LSD-1 (Homo sapiens, UniProt O60341); pIC50: 5.89

Form: item CCn1cc(C(=O)O)c(=O)c2c(N)c(F)c(NC3CC(N[C@@H]4C[C@H]4c4ccccc4)C3)cc21 (relative stereo) ; test system LSD-1 (Homo sapiens, UniProt O60341); pIC50: 5.96

Form: item CCn1cc(C#N)c(=O)c2c(N)c(F)c(NCCN[C@@H]3C[C@H]3c3ccccc3)cc21 (relative stereo) ; test system LSD-1 (Homo sapiens, UniProt O60341); pIC50: 5.85

* * *

Assignment: determine reported efflux ratio at 2 h, 10 µM for the given compounds.
Assay: Caco-2 cell permeability assay
Assay type: in vitro ADME
Conditions: human, pH 7.4; Caco-2, Papp (B-A)/Papp (A-B); approximate values
# print the numeric value only

The compound CCn1cc(C#N)c(=O)c2c(N)c(F)c(NCCc3ccccc3)cc21 showed efflux ratio at 2 h, 10 µM equal to 0.24

The compound CCn1cc(C#N)c(=O)c2c(N)c(F)c(N[C@@H]3C[C@H]3c3ccccc3)cc21 (relative stereo) showed efflux ratio at 2 h, 10 µM equal to 0.75

The compound CCn1cc(C(=O)O)c(=O)c2c(N)c(F)c(N[C@H]3C[C@@H](c4ccccc4)C3)cc21 showed efflux ratio at 2 h, 10 µM equal to 0.85

* * *

Molecular target: LSD2 (Homo sapiens, UniProt Q8NB78)
Sequence (Q8NB78 whole entry): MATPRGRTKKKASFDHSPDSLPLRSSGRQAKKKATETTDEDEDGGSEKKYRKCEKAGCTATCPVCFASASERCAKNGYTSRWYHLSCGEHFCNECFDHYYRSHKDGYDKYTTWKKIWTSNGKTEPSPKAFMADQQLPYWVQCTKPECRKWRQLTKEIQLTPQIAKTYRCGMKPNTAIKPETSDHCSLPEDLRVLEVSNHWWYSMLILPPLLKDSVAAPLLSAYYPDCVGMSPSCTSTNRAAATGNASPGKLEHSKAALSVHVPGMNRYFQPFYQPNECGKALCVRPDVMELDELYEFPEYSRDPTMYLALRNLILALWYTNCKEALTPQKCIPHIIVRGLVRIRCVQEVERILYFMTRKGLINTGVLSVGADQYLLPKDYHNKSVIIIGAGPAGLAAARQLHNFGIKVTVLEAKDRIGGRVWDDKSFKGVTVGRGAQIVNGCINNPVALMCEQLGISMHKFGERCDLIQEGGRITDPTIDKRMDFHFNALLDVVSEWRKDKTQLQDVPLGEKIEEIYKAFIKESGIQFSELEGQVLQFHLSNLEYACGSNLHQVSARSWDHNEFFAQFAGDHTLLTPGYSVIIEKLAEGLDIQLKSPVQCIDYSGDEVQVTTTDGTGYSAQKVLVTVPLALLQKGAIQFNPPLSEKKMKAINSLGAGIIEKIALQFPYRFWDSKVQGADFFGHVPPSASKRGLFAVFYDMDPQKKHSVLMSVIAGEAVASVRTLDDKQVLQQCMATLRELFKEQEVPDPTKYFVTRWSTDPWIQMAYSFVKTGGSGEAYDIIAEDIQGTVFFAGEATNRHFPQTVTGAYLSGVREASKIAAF
Test: LSD2 A-screen (AlphaScreen) demethylase enzymatic assay
Type: biochemical
Conditions: 50 μM compound; approximate values; read-out: Potency LSD-2 % Inhibition at 50 μM
Values of inhibition at 50 µM greater than or equal to 6% map to label 1; values below map to label 0.

## Task Form field: inhibition at 50 µM at least 6%? Entry: CCn1cc(C(=O)O)c(=O)c2c(N)c(F)c(N3CCC(N[C@@H]4C[C@H]4c4ccccc4)CC3)cc21 (relative stereo)
## Result label 1

## Task Form field: inhibition at 50 µM at least 6%? Entry: CCn1cc(C(=O)O)c(=O)c2c(N)c(F)c(NC3CCC3)cc21
## Result label 0

## Task Form field: inhibition at 50 µM at least 6%? Entry: CCn1cc(C(=O)O)c(=O)c2c(N)c(F)c(N[C@H]3C[C@@H]3c3ccccc3)cc21
## Result label 0

## Task Form field: inhibition at 50 µM at least 6%? Entry: CCn1cc(C(=O)O)c(=O)c2c(N)c(F)c(NCCN[C@@H]3C[C@H]3c3ccccc3)cc21 (relative stereo)
## Result label 1

## Task Form field: inhibition at 50 µM at least 6%? Entry: CCn1cc(C(=O)O)c(=O)c2c(N)cc(NC3CCCCC3)c(F)c21
## Result label 0

* * *

Target: GSK3α (Homo sapiens)
Sequence (P49840 whole entry): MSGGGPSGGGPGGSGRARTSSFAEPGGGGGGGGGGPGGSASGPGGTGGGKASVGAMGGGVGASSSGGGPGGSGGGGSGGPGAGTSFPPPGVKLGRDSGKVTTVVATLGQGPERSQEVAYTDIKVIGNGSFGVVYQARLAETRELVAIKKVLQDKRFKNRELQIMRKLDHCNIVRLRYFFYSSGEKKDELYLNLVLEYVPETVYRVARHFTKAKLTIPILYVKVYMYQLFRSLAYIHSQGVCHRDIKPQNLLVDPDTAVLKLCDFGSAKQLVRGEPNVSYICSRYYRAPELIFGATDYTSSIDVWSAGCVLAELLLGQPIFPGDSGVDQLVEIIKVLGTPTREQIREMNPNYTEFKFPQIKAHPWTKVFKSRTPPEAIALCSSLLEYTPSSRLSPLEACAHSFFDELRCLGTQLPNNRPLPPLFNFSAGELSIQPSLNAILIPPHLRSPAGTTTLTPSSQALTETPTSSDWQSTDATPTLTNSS
Assay: GSK3α in vitro enzymatic assay (Kinase-Glo Max luminescence)
Conditions: recombinant human GSK3, 10 μM ATP; approximate values; read-out: Potency GSK3alpha
Each record's class is read off its IC50 using these ranges: lower range: < 0.1 µM; middle range: ≥ 0.1 µM and < 0.5 µM; upper range: ≥ 0.5 µM

## Task Lab note: which band did CCn1cc(C(=O)O)c(=O)c2c(N)c(F)c(N[C@@H]3C[C@H]3c3ccccc3)cc21 (single isomer, unassigned) [Compound I-63] land in?
## Result upper range

## Task Lab note: which band did CCn1cc(C(=O)O)c(=O)c2c(N)c(F)c(NC3CCCCC3)cc21 [Compound I-7] land in?
## Result lower range

## Task Lab note: which band did CCn1cc(C(=O)O)c(=O)c2c(N)c(F)c(N[C@H]3C[C@H](c4ccccc4)C3)cc21 [Compound I-60] land in?
## Result lower range

## Task Lab note: which band did CCn1cc(C(=O)O)c(=O)c2c(N)cc(N[C@@H]3C[C@H]3c3ccccc3)cc21 (relative stereo) [Compound I-59] land in?
## Result upper range

## Task Lab note: which band did CCn1cc(C(=O)O)c(=O)c2c(N)cc(NCCc3ccccc3)c(F)c21 [Compound I-65] land in?
## Result upper range

## Task Lab note: which band did CCn1cc(C(=O)O)c(=O)c2c(N)c(F)c(NC3CCOCC3)cc21 [Compound I-8] land in?
## Result upper range

## Task Lab note: which band did CCn1cc(C(=O)O)c(=O)c2c(N)c(F)c(N[C@H]3CC[C@@H](N[C@@H]4C[C@H]4c4ccccc4)CC3)cc21 (relative stereo) [Compound I-28] land in?
## Result middle range

## Task Lab note: which band did CCCn1cc(C(=O)O)c(=O)c2c(N)c(F)c(NCCN[C@@H]3C[C@H]3c3ccccc3)cc21 (relative stereo) [Compound I-87] land in?
## Result middle range

## Task Lab note: which band did CCn1cc(C(=O)O)c(=O)c2c(N)c(F)c(N[C@H]3C[C@@H]3c3ccccc3)cc21 [Compound I-22] land in?
## Result middle range

## Task Lab note: which band did CCn1cc(C(=O)O)c(=O)c2c(N)c(F)c(OCCc3ccccc3)cc21 [Compound I-52] land in?
## Result upper range

## Task Lab note: which band did CCn1cc(C(=O)O)c(=O)c2c(N)c(F)c(Nc3ccc([C@@H]4C[C@H]4N)cc3)cc21 (relative stereo) [Compound I-62] land in?
## Result middle range

## Task Lab note: which band did CCn1cc(C#N)c(=O)c2c(N)c(F)c(N[C@@H]3C[C@H]3c3ccccc3)cc21 (relative stereo) [Compound I-38] land in?
## Result lower range

## Task Lab note: which band did CCn1cc(C(=O)O)c(=O)c2c(N)c(F)c(NC3CC(N[C@@H]4C[C@H]4c4ccccc4)C3)cc21 (relative stereo) [Compound I-70] land in?
## Result middle range

## Task Lab note: which band did Nc1c(F)c(N[C@@H]2C[C@H]2c2ccccc2)c(F)c2c1c(=O)c(C(=O)O)cn2C1CC1 (relative stereo) [Compound I-32] land in?
## Result upper range

## Task Lab note: which band did CCn1cc(C(=O)O)c(=O)c2c(N)cc(NC3CCCCC3)c(F)c21 [Compound I-64] land in?
## Result upper range

## Task Lab note: which band did CCn1cc(C(=O)O)c(=O)c2c(N)c(F)c(NCc3ccccc3)cc21 [Compound I-17] land in?
## Result upper range

## Task Lab note: which band did CCn1cc(C(=O)O)c(=O)c2cc(F)c(NC3CCCCC3)cc21 [Compound I-1] land in?
## Result upper range

## Task Lab note: which band did CCn1cc(C(=O)O)c(=O)c2c(N)c(F)c(N[C@H]3C[C@@H](c4ccccc4)C3)cc21 [Compound I-61] land in?
## Result lower range

## Task Lab note: which band did CCn1cc(C#N)c(=O)c2c(N)c(F)c(NCCc3ccccc3)cc21 [Compound I-67] land in?
## Result lower range

## Task Lab note: which band did CCn1cc(C(=O)O)c(=O)c2c(N)c(F)c(NC3Cc4ccccc4C3)cc21 [Compound I-11] land in?
## Result upper range

## Task Lab note: which band did CCn1cc(C(=O)O)c(=O)c2c(N)cc(NCCc3ccccc3)cc21 [Compound I-56] land in?
## Result upper range

## Task Lab note: which band did Nc1c(F)c(NCCN[C@@H]2C[C@H]2c2ccccc2)cc2c1c(=O)c(C(=O)O)cn2C1CC1 (relative stereo) [Compound I-89] land in?
## Result middle range

## Task Lab note: which band did CCn1cc(C(=O)O)c(=O)c2c(N)c(F)c(Nc3ccccc3)cc21 [Compound I-16] land in?
## Result middle range

## Task Lab note: which band did CCn1cc(C(N)=O)c(=O)c2c(N)c(F)c(NCCc3ccccc3)cc21 [Compound I-66] land in?
## Result lower range

## Task Lab note: which band did CCn1cc(C(=O)O)c(=O)c2c(N)c(F)c(N(C)CCN[C@H]3C[C@@H]3c3ccccc3)cc21 (relative stereo) [Compound I-50] land in?
## Result upper range
